Just for reference, patent US20170210813A1 is where these values come from.

- Tested target: T1, Macaca fascicularis PDGFRb.mmh (Macaca fascicularis)
- T1 construct: Soluble monomeric construct; also called mfPDGFRb.mmh
- T1 chain: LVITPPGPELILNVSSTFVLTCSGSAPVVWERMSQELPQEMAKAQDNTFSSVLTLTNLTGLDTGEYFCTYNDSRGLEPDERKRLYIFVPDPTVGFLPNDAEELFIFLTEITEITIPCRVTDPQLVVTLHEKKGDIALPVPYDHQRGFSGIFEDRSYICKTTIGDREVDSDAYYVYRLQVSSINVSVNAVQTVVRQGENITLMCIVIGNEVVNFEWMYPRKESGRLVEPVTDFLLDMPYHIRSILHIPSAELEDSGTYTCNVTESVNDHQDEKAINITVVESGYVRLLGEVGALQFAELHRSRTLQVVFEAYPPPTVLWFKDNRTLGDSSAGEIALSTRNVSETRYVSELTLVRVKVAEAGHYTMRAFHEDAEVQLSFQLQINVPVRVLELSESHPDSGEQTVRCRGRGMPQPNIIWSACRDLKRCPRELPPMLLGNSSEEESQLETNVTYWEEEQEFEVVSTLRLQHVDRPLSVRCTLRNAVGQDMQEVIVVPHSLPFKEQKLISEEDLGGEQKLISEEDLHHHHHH
- Assay details: SPR, mAb captured, 37 C
Each entry below carries its reported pKd.
Note on pKd: it is the negative log10 of concentration, concentration in mol/L.

H4H3094P (antibody, human IgG4, V domains shown, also called H4H3394P) VH: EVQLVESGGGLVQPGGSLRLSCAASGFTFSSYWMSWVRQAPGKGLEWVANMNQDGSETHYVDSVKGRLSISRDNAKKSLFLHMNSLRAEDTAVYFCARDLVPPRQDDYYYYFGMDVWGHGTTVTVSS VL: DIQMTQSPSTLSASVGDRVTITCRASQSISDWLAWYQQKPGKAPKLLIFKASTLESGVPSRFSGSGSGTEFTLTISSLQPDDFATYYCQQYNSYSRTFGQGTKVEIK
8.17
H4H3103S (antibody, human IgG4, V domains shown, human IgG4 Fc (H4H prefix)) VH: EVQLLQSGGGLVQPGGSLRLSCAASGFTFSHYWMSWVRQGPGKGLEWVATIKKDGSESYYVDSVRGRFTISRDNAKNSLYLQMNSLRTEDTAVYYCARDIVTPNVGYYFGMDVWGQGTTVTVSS VL: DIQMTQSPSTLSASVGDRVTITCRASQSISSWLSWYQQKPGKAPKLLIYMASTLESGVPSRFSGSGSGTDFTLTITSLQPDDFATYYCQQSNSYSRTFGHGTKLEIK
7.99

// query pKd value for entry H4H3106S (antibody, human IgG4, V domains shown, human IgG4 Fc (H4H prefix)) VH: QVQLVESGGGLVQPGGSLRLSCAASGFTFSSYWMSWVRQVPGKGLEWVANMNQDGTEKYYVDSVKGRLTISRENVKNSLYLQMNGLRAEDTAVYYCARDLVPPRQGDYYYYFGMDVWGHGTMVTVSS VL: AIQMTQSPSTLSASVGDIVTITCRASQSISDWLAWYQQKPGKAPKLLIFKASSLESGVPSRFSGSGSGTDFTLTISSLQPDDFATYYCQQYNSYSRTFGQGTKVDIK
8.03

H4H3102S (antibody, human IgG4, V domains shown, human IgG4 Fc (H4H prefix)) VH: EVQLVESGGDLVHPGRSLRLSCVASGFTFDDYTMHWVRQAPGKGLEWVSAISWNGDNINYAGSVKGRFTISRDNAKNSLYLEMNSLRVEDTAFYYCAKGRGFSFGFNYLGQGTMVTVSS VL: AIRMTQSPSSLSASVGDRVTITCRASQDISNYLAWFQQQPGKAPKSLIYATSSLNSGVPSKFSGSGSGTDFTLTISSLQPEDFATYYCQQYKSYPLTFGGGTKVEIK , same question.
8.54

H4H3104S (antibody, human IgG4, V domains shown, human IgG4 Fc (H4H prefix)) VH: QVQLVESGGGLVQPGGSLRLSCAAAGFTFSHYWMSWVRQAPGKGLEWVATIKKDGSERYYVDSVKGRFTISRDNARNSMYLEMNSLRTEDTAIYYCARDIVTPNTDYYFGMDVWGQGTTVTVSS VL: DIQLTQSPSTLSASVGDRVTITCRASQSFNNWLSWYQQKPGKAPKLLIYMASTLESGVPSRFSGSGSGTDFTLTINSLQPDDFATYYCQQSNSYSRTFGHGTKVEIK , same question.
8.39

H4H3096S (antibody, human IgG4, V domains shown, human IgG4 Fc (H4H prefix)) VH: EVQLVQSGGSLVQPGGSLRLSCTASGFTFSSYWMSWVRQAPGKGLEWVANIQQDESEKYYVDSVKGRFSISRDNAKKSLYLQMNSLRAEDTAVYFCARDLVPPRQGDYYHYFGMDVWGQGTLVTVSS VL: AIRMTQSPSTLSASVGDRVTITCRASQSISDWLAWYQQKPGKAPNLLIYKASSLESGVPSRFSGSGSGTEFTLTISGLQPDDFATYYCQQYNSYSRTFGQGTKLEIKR , same question.
7.50
